- subjectOfTest: T1, human IL-11 (AAH12506.1, Pro22-Leu199) (human, UniProt P20809 22-199)
- T1 construct: The range Pro22-Leu199 counts on AAH12506.1; The Octet runs say only 'human IL-11'; also called hIL-11
- T1 chain: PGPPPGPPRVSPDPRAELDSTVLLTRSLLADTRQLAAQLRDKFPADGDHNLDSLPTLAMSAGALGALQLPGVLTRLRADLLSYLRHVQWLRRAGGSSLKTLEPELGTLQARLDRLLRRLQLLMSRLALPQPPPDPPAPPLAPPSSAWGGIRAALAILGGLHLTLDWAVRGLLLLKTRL
- test: BLI (Octet), antibody captured, human IL-11 in solution
endpoint: pKd
Just the number, please; pKd means minus log10 of the concentration in mol/L.

Recorded pKd, per entry:
In: Look up pKd for this binder: hz18A10-VH + hz18A10-VLm9 (antibody, V domains shown, Constant regions not restated for this antibody) VH: EVQLVQSGAEVKKPGASVKVSCKASGYTFTTYNMDWVRQAPGQGLEWMGTIYPGNGDTSYNQKFKGRVTMTRDTSTSTVYMELSSLRSEDTAVYYCARGDLYALDYWGQGTLVTVSS VL: DIQMTQSPSSLSASVGDRVTITCKASQSVYSDVAWYQQKPGKAPKLLIYSASNRYTGVPSRFSGSGSGTDFTFTISSLQPEDIATYYCQHDYSSPYTFGQGTKLEIK
Out: 9.27

In: Now the same for hz18A10-VH + hz18A10-VLm12 (antibody, V domains shown, Constant regions not restated for this antibody) VH: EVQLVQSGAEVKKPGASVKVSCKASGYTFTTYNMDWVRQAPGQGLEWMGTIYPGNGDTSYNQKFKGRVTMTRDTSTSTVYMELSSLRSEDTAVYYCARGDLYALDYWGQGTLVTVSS VL: DIQMTQSPSSLSASVGDRVTITCKASQSVSNDVAWYQQKPGKAPKLLIYSASSRYTGVPSRFSGSGSGTDFTFTISSLQPEDIATYYCQHDYSSPYTFGQGTKLEIK
Out: 8.45

In: Follow-up entry: hz18A10-VHm10 + hz18A10-VLm19 (antibody, V domains shown, Constant regions not restated for this antibody) VH: EVQLVQSGAEVKKPGASVKVSCKASGYTFNHYNMDWVRQAPGQGLEWMGTIYPGNGDTSYNQKFKGRVTMTRDTSTSTVYMELSSLRSEDTAVYYCARGDLYALDYWGQGTLVTVSS VL: DIQMTQSPSSLSASVGDRVTITCKASQSVYRDVAWYQQKPGKAPKLLIYSASNRYTGVPSRFSGSGSGTDFTFTISSLQPEDIATYYCQHDYSSPYTFGQGTKLEIK
Out: 9.63

In: Query hz18A10-VH + hz18A10-VLm13 (antibody, V domains shown, Constant regions not restated for this antibody) VH: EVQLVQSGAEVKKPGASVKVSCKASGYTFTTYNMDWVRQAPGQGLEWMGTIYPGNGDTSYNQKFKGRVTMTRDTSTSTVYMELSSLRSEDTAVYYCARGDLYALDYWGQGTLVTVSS VL: DIQMTQSPSSLSASVGDRVTITCKASQSVSNDVAWYQQKPGKAPKLLIYSASRRYTGVPSRFSGSGSGTDFTFTISSLQPEDIATYYCQHDYSSPYTFGQGTKLEIK next
Out: 8.40

In: Then this binder: hz18A10-VHm1 + hz18A10-VLm9 (antibody, V domains shown, Constant regions not restated for this antibody) VH: EVQLVQSGAEVKKPGASVKVSCKASGYTFTTYNMDWVRQAPGQGLEWMGTIYPGNGDTSYNQKFKGRVTMTRDTSTSTVYMELSSLRSEDTAVYYCARGDLHFLDYWGQGTLVTVSS VL: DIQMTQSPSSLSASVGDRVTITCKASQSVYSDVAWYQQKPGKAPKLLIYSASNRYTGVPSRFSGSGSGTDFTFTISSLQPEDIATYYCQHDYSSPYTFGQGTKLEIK
Out: 8.70

In: Can you handle hz18A10-VHm1 + hz18A10-VLm11 (antibody, V domains shown, Constant regions not restated for this antibody) VH: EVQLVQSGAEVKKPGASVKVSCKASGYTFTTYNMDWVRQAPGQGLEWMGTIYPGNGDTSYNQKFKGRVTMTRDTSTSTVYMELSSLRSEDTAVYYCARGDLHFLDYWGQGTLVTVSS VL: DIQMTQSPSSLSASVGDRVTITCKASQSVSNDVAWYQQKPGKAPKLLIYRASNRYTGVPSRFSGSGSGTDFTFTISSLQPEDIATYYCQHDYSSPYTFGQGTKLEIK next?
Out: 9.08

New cases:
In: So what's the measured pKd for this one? hz18A10-VHm2 + hz18A10-VLm9 (antibody, V domains shown, Constant regions not restated for this antibody) VH: EVQLVQSGAEVKKPGASVKVSCKASGYTFTTYNMDWVRQAPGQGLEWMGTIYPGNGDTSYNQKFKGRVTMTRDTSTSTVYMELSSLRSEDTAVYYCARGDLHYLDYWGQGTLVTVSS VL: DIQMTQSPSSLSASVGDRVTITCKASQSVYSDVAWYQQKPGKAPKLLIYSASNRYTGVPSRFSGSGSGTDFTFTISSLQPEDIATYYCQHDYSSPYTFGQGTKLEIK
Out: 8.63

In: Next: hz18A10-VH + hz18A10-VLm1 (antibody, V domains shown, Constant regions not restated for this antibody) VH: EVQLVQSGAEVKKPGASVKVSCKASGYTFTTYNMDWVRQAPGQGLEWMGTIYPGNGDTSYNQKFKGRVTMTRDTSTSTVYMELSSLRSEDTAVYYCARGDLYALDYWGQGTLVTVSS VL: DIQMTQSPSSLSASVGDRVTITCKASKSVSNDVAWYQQKPGKAPKLLIYSASNRYTGVPSRFSGSGSGTDFTFTISSLQPEDIATYYCQHDYSSPYTFGQGTKLEIK
Out: 8.34

In: Okay, and hz18A10-VH + hz18A10-VLm4 (antibody, V domains shown, Constant regions not restated for this antibody) VH: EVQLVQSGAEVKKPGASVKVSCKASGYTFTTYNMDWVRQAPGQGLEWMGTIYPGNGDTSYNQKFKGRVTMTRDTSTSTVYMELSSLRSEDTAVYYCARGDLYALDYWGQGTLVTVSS VL: DIQMTQSPSSLSASVGDRVTITCKASQFVSNDVAWYQQKPGKAPKLLIYSASNRYTGVPSRFSGSGSGTDFTFTISSLQPEDIATYYCQHDYSSPYTFGQGTKLEIK ?
Out: 8.51

In: Try this binder too: hz18A10-VHm1 + hz18A10-VL (antibody, V domains shown, Constant regions not restated for this antibody) VH: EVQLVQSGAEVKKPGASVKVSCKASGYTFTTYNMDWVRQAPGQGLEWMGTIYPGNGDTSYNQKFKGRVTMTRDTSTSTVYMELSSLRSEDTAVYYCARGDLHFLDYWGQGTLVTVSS VL: DIQMTQSPSSLSASVGDRVTITCKASQSVSNDVAWYQQKPGKAPKLLIYSASNRYTGVPSRFSGSGSGTDFTFTISSLQPEDIATYYCQHDYSSPYTFGQGTKLEIK
Out: 8.66

Each recorded value in this set is attributed to patent US20250197488A1.
